Hello, the source for this data is the OligoGym collection, in case you need it.

- subjectOfTest: SIRT4
- procedureText: pooled miR-30 sensor sort-seq; sequence = guide strand; note: reference of the scale not given here
- conditionDetails: shRNA
Listed sequences paired with reported sensor-assay potency score (higher = more potent)
parameterMeasured: sensor-assay potency score (higher = more potent)

ATGTTCAGTATTGCAATCGGGA : -1.33
TTGAACGCAGGTTGGGACCTGA : 0.0552
TTTTGCTGACCTGAAAGTCAAC : -1.46
ATACCTGCAAGGATGATCCCAC : 0.445
TTGTGCACAAAATCAACCTTGT : 0.469
TTTTCTGACCTGTAGTCTGGTA : -0.377
TATTGCAATCGGGAGCTTCTTC : -0.488
